# experimental.details: Mouse plasma protein binding
# Assay type: in vitro ADME
# cond: mouse, plasma, read-out: % Unbound
assay.readout: fraction unbound

Input: fraction unbound lookup needed for `COc1ccc2[nH]cc(CCN3CCCC3)c2c1F` , thanks.
Output: 0.626

====

# system.under.test: 5-HT1A (Homo sapiens, UniProt P08908)
# Sequence (P08908 whole entry): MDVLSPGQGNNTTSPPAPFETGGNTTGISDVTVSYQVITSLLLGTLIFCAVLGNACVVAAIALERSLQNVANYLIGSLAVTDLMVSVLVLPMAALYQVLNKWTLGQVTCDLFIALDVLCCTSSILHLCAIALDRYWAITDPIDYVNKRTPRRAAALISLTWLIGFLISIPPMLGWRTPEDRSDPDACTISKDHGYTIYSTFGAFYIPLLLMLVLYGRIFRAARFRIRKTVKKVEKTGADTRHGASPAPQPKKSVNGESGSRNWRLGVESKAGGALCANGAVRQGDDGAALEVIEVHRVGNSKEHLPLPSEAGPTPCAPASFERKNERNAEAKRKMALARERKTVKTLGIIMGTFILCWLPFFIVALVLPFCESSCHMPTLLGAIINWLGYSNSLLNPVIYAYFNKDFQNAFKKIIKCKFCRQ
# experimental.details: BRET signaling assay: 5-HT1A-mediated activation of heterotrimeric Gi1 (TRUPATH, HEK293-T)
# cond: EC50 (nM) Mean BRET Gi1-1A
assay.readout: EC50 (nM)
Just the number please, in nM, no unit attached.

Input: Which EC50 reading was recorded for the compound `COc1ccc2[nH]cc(CCN(C)C)c2c1F` ?
Output: 1.77
